tested on: Hepatitis B virus; experiment: Antiviral activity against HBV infected in human HepG2.2.15 cells assessed as inhibition of DNA replication; format: functional, organism-based; conditions: HepG2 2.2.15
experimentalReadout: IC50 (µM)

Solved entries (count: 3):
structureSmilesString	unitOfMeasurement	IC50
C=C1CC[C@@H]2[C@](C)(CO)[C@H](OC(=O)/C=C/c3cc(OC)c(OC)c(OC)c3)CC[C@@]2(C)[C@@H]1C/C=C1\C=COC1=O	µM	53.1
C=C1CC[C@@H]2[C@](C)(COC(=O)/C=C/c3ccccc3)[C@H](O)CC[C@@]2(C)[C@@H]1/C=C/C1=CCOC1=O	µM	14.6
C=C1CC[C@@H]2[C@](C)(COC(=O)c3cccnc3)[C@H](O)CC[C@@]2(C)[C@@H]1C/C=C1\C=COC1=O	µM	16.3

1: C=C1CC[C@@H]2[C@](C)(COC(=O)CCCC)[C@H](OC(=O)CCCC)CC[C@@]2(C)[C@@H]1C/C=C1\C=COC1=O
2: C=C1CC[C@@H]2[C@](C)(CO)[C@H](O)CC[C@@]2(C)[C@@H]1/C=C/C1=CCOC1=O
3: C=C1CC[C@@H]2[C@](C)(COC(=O)/C=C/c3ccccc3)[C@H](O)CC[C@@]2(C)[C@@H]1C/C=C1\C=COC1=O
4: C=C1CC[C@@H]2[C@](C)(COC(C)=O)[C@H](O)CC[C@@]2(C)[C@@H]1/C=C/C1=CCOC1=O
## Input Arrange the 4 compounds by rising IC50, starting with the smallest. Order the labels as requested and give them as your answer.
## Output 2, 3, 4, 1

---

assay: Cytotoxicity against human HepG2.2.15 cells by MTT assay; format: cell-based, HepG2 2.2.15
experimentalReadout: CC50 (µM)
Report as a plain number; the unit µM is understood.

Just so you know, measured CC50 for `C=C1CC[C@@H]2[C@](C)(COC(=O)c3ccco3)[C@H](OC(=O)c3ccco3)CC[C@@]2(C)[C@@H]1/C=C/C1=CCOC1=O` came out at 1110

The recorded CC50 for `C=C1CC[C@@H]2[C@](C)(CO)[C@H](OC(=O)c3cccs3)CC[C@@]2(C)[C@@H]1C/C=C1\C=COC1=O` is 257

Entry C=C1CC[C@@H]2[C@](C)(CO)[C@H](O)CC[C@@]2(C)[C@@H]1C/C=C1/C(=O)OC[C@H]1O [ANDROGRAPHOLIDE] ; CC50 = 198

In plain terms, `C=C1CC[C@@H]2[C@](C)(COC(=O)c3ccco3)[C@H](O)CC[C@@]2(C)[C@@H]1/C=C/C1=CCOC1=O` has a documented CC50 of 92

CC50 reading for `C=C1CC[C@@H]2[C@](C)(CO)[C@H](OC(=O)c3ccccc3)CC[C@@]2(C)[C@@H]1C/C=C1\C=COC1=O` : 103

Note to self: CC50 recorded for `C=C1CC[C@@H]2[C@](C)(COC(=O)c3cc(=O)c4ccccc4o3)[C@H](O)CC[C@@]2(C)[C@@H]1/C=C/C1=CCOC1=O` was 171

Reported CC50 of `C=C1CC[C@@H]2[C@](C)(CO)[C@H](O)CC[C@@]2(C)[C@@H]1/C=C/C1=CC(CO)(CO)OC1=O` : 954

Just so you know, measured CC50 for `C=C1CC[C@@H]2[C@](C)(COC(=O)/C=C/c3ccccc3)[C@H](O)CC[C@@]2(C)[C@@H]1/C=C/C1=CCOC1=O` came out at 183

Taken from ChEMBL document CHEMBL3259753.
